- System: HEK-293T
- Experiment: Multiplex assay against HEK293T
- Format: toxicity, cell-based
- Condition context: human, 12 h, 10 µM, compound concentration 10 uM, replicate 1
Endpoint name: Population Healthy Nuclei (%)
# output: number + unit

# annotated cases, reported Population Healthy Nuclei (%) shown
Structure smiles string	Readout value
CCc1cccc(CC)c1NC(=O)c1nn(C)c2c1CCc1cnc(Nc3ccc(C(=O)NC4CCN(C)CC4)cc3OC(F)(F)F)nc1-2	31%
S=C(NCCCc1c[nH]cn1)NCCCN(Cc1ccc(Cl)c(Cl)c1)c1ccc(Br)cn1	2%
CCOc1cc(C(=O)N2CCC(N3CCN(C)CC3)CC2)ccc1Nc1ncc2c(n1)N(C1CCCC1)c1ccccc1C(=O)N2C	12%

Then there is this molecule:
Query CCc1cccc(CC)c1NC(=O)c1nn(C)c2c1CCc1cnc(Nc3ccc(N4CCN(C)CC4)cc3OC)nc1-2 yields Population Healthy Nuclei (%) of 64%
